# procedure-text: melting temperature; fluorescence melt of hairpins on a sequencing array, two-state fit, raised by 9.35 °C to match UV melts
# condition-description: sodium 0.088 M
Here the recorded Tm is given for each entry.
A number alone suffices; assume °C.

Completed entries (count: 4):
sequence-text | Tm [°C]
GACACAGGAAACTGTATC ((.((((....)))).)) | 28.3
GCTGTGCGAAAGCATTGC ((..(((....)))..)) | 53.5
GTTACTGAAAAGTAAC ((((((....)))))) | 49.4
GGCGAAGGAAACTCCGCC ((((.((....)).)))) | 51.1

Which Tm value belongs to GATCTATGGTAGATC ((((((...)))))) ? 36.9

Another sequence to check: GTTGATGCGAAAGCAAAC (((..(((....)))))) 37.1

How about this sequence: GCAGTCGAAAGACTCTGC ((((((....)))..))) 41.8
